B1: unnamed (parent)
chain 1: QNSLSTEWSPCSVT
chain 2: not shown
chain 3: not shown

Variants of: B1
Experiment: binding inhibition (competition) assay with biotin-labeled HA 306-318
Conditions: peptides tested at 0 to 100 µM, read off a plot
Output satisfied for records whose IC50 is lower than 1 µM, not satisfied for records at or above 1 µM.

Past entries and their recorded results:
chain 1 S5A	satisfied
chain 1 T6A	not satisfied
chain 1 C11A	satisfied
chain 1 S12A	satisfied
chain 1 S3A	not satisfied

Lookup: Does chain 1 Q1A have IC50 strictly under 1 µM?
Found: not satisfied

Lookup: Does chain 1 W8A have IC50 strictly under 1 µM?
Found: not satisfied

Lookup: Does chain 1 T14A have IC50 strictly under 1 µM?
Found: satisfied
